Below is a list of entries, each paired with its recorded koff value.
# Target of assay: T1, recombinant OX40 protein with a His tag (Cat: 10481-H08H, Sino Biological) (UniProt P43489 29-216)
# T1 construct: Bought protein; also called OX40-His (bought); not shown: His tag
# T1 sequence (looked up): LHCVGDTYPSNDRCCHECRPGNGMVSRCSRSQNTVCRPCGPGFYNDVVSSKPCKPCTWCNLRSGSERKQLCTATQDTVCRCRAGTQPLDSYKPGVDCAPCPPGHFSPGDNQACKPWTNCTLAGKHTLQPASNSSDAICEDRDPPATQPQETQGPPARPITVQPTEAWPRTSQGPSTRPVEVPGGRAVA
# Assay notes: Biacore (SPR); antigen not named on the sheet, OX40-His as in Example 4
Record the value in s⁻¹, omitting the unit from your answer.

Enquiry: Using the record for 445-3(Q62E/Q65K)-3(S24R) (antibody, V domains shown) VH: QVQLVQSGAEVKKPGSSVKVSCKASGYKFTSYIIHWVRQAPGQGLEWMGYINPYNEGTRYAEKFKGRVTLTADKSTSTAYMELSSLRSEDTAVYYCARGYYGSSYAMDYWGQGTTVTVSS VL: DIQMTQSPSSLSASVGDRVTITCRASQGISNYLNWYQQKPGKAIKLLIYDASTLYSGVPSRFSGSGSGTDFTLTISSLQPEDFATYYCQQYSKLPYTFGGGTKVEIK , report its koff.
Return: 0.00232

Enquiry: I am curious: what koff value has been reported for 445-3-3(G41D-K42G-S24R-K93R) (antibody, V domains shown) VH: QVQLVQSGAEVKKPGSSVKVSCKASGYKFTSYIIHWVRQAPGQGLEWMGYINPYNEGTRYNQKFQGRVTLTADKSTSTAYMELSSLRSEDTAVYYCARGYYGSSYAMDYWGQGTTVTVSS VL: DIQMTQSPSSLSASVGDRVTITCRASQGISNYLNWYQQKPDGAIKLLIYDASTLYSGVPSRFSGSGSGTDFTLTISSLQPEDFATYYCQQYSRLPYTFGGGTKVEIK ?
Return: 0.00168

Enquiry: May I ask what koff has been recorded for 445-3(A61N-K63R)-3 (antibody, V domains shown) VH: QVQLVQSGAEVKKPGSSVKVSCKASGYKFTSYIIHWVRQAPGQGLEWMGYINPYNEGTRYNQRFQGRVTLTADKSTSTAYMELSSLRSEDTAVYYCARGYYGSSYAMDYWGQGTTVTVSS VL: DIQMTQSPSSLSASVGDRVTITCRASQGISNYLNWYQQKPDGAIKLLIYDASTLYSGVPSRFSGSGSGTDFTLTISSLQPEDFATYYCQQYSKLPYTFGGGTKVEIK ?
Return: 0.00155

Enquiry: Look up koff: 445-3(Q62E)-3(S24R) (antibody, V domains shown) VH: QVQLVQSGAEVKKPGSSVKVSCKASGYKFTSYIIHWVRQAPGQGLEWMGYINPYNEGTRYAEKFQGRVTLTADKSTSTAYMELSSLRSEDTAVYYCARGYYGSSYAMDYWGQGTTVTVSS VL: DIQMTQSPSSLSASVGDRVTITCRASQGISNYLNWYQQKPGKAIKLLIYDASTLYSGVPSRFSGSGSGTDFTLTISSLQPEDFATYYCQQYSKLPYTFGGGTKVEIK
Return: 0.00227
